ASSAY: in vivo
Design: species or system mice
EXPERIMENTAL_PARAMETERS: male, NODSCID 1L2RγKO, mouse, iv, total radioactivity, Lacrimal uptake
RESULT_TYPE: tissue uptake at 24 h (%ID/g)
Expressed in %ID/g, but write only the number.

Worked examples follow.
COc1ccc(CCCC(=O)NCC(=O)N[C@@H](CCCCNC(=O)CN2CCN(CC(=O)O)CCN(CC(=O)O)CCN(CC(=O)O)CC2)C(=O)NC[C@H]2CC[C@H](C(=O)N[C@@H](Cc3c4ccccc4cc4ccccc34)C(=O)NCCCC[C@H](NC(=O)N[C@@H](CSCC(=O)O)C(=O)O)C(=O)O)CC2)cc1 [177Lu-HTK04048, metal not drawn] | 0.05
COc1ccc(CCCC(=O)NCC(=O)N[C@@H](CCCCNC(=O)CN2CCN(CC(=O)O)CCN(CC(=O)O)CCN(CC(=O)O)CC2)C(=O)NC[C@H]2CC[C@H](C(=O)N[C@@H](Cc3c4ccccc4cc4ccccc34)C(=O)NCCCC[C@H](NC(=O)N[C@@H](CCCC(=O)O)C(=O)O)C(=O)O)CC2)cc1 [177Lu-HTK03170, metal not drawn] | 0.04
COc1ccc(CCCC(=O)NCC(=O)N[C@@H](CCCCNC(=O)CN2CCN(CC(=O)O)CCN(CC(=O)O)CCN(CC(=O)O)CC2)C(=O)NC[C@H]2CC[C@H](C(=O)N[C@@H](Cc3c4ccccc4cc4ccccc34)C(=O)NCCCC[C@H](NC(=O)N[C@@H](COCC(=O)O)C(=O)O)C(=O)O)CC2)cc1 [177Lu-HTK04028, metal not drawn] | 0.05

Note to self: tissue uptake at 24 h recorded for O=C(O)CCC[C@H](NC(=O)N[C@@H](CCCCNC(=O)[C@H](Cc1c2ccccc2cc2ccccc12)NC(=O)[C@H]1CC[C@H](CNC(=O)[C@H](CCCCNC(=O)CN2CCN(CC(=O)O)CCN(CC(=O)O)CCN(CC(=O)O)CC2)NC(=O)CNC(=O)CCCc2ccc(Cl)cc2)CC1)C(=O)O)C(=O)O [177Lu-HTK03153, metal not drawn] was 0.18
